TARGET DESC: T1, mouse LTβR extracellular domain fused with an Fc fragment at the C-terminus (mouse, UniProt P50284 31-223)
T1 construct: extracellular domain; Bought; also called mLTβR; not shown: Fc fragment at the C-terminus
T1 sequence (P50284 31-223): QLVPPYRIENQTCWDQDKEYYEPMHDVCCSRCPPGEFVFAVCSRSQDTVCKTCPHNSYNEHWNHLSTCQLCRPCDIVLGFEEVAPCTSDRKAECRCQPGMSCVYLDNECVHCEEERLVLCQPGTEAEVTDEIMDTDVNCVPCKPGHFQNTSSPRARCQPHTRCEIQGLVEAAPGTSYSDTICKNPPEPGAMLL
ASSAY PROCEDURE: ELISA on coated target-Fc
ENDPOINT LABEL: EC50 (µg/mL)
The reply should be a number in µg/mL, with the unit left off.

BINDER | UNIT STRING | ASSAY VALUE
LIGHT-18 (ligand, Soluble protein carries an N-terminal His tag) DGPAGSWEQLIQERRSHEVNPAAHLTGANSSLTGSGGPLLWETQLGLAFLRGLSYHDGALVITKAGYYYIYSKVQLGGVGCPLGQASTITHGLYKRTPRYPEELELLVSQQSPCGRATSSSRVWWDSSFLGGVVHLEAGEEVVVRVLDKRLVRLRDGTRSYFGAFMV | µg/mL | 0.0413

// moving on: another record for EC50
Q: Report EC50 for LIGHT-39 (ligand, Printed mutations: L158P, L166M, L220M; Soluble protein carries an N-terminal His tag) DGPAGSWEQLIQERRSHEVNPAAHLTGANSSLTGSGGPLLWETQLGLAFLRGLSYHDGALVVTKAGYYYIYSKVQLGGVGCPLGPASTITHGMYKRTPRYPEELELLVSQQSPCGRATSSSRVWWDSSFLGGVVHLEAGEKVVVRVMDERLVRLRDGTRSYFGAFMV please.
Ans: 0.0239
